- recorded.conditions: in water, 318.15 K
quantity.kind: solubility (mole fraction)

// query solubility (mole fraction) value for entry N[C@@H](CCC(=O)N[C@@H](CS)C(=O)NCC(=O)O)C(=O)O
0.0202

* * *

- recorded.conditions: in water, 313.15 K
quantity.kind: solubility (mole fraction)
Give the figure only, with no unit attached.

// query solubility (mole fraction) value for entry N[C@@H](CCC(=O)N[C@@H](CS)C(=O)NCC(=O)O)C(=O)O
0.0169

* * *

- recorded.conditions: in water, 293.15 K
quantity.kind: solubility (mole fraction)
Give the figure only, with no unit attached.

// query solubility (mole fraction) value for entry N[C@@H](CCC(=O)N[C@@H](CS)C(=O)NCC(=O)O)C(=O)O
0.00792

* * *

- recorded.conditions: in water, 308.15 K
quantity.kind: solubility (mole fraction)
Give the figure only, with no unit attached.

// query solubility (mole fraction) value for entry N[C@@H](CCC(=O)N[C@@H](CS)C(=O)NCC(=O)O)C(=O)O
0.0139

* * *

- recorded.conditions: in water, 303.15 K
quantity.kind: solubility (mole fraction)
Give the figure only, with no unit attached.

// query solubility (mole fraction) value for entry N[C@@H](CCC(=O)N[C@@H](CS)C(=O)NCC(=O)O)C(=O)O
0.0115

* * *

- recorded.conditions: in water, 278.15 K
quantity.kind: solubility (mole fraction)
Give the figure only, with no unit attached.

// query solubility (mole fraction) value for entry N[C@@H](CCC(=O)N[C@@H](CS)C(=O)NCC(=O)O)C(=O)O
0.00427

* * *

- recorded.conditions: in water, 283.15 K
quantity.kind: solubility (mole fraction)
Give the figure only, with no unit attached.

// query solubility (mole fraction) value for entry N[C@@H](CCC(=O)N[C@@H](CS)C(=O)NCC(=O)O)C(=O)O
0.00519

Reference source for all entries: BigSolDB 2.1
